- System: CYP3A4 mRNA
- assayText: Concentration-dependent CYP3A4 mRNA induction in HepatoCells
- conditionDescription: human, EC50, Lot 2B HepatoCells; CYP3A4 mRNA fold increase; nominal concentrations; NI = no induction observed at tested concentration
Listing of entries alongside the reported EC50.

| compound | EC50 (µM) |
| --- | --- |
| O=C1C(CC[S+]([O-])c2ccccc2)C(=O)N(c2ccccc2)N1c1ccccc1 (stereo not drawn) | 23 |
| CCc1ccc(CCOc2ccc(CC3SC(=O)NC3=O)cc2)nc1 (stereo not drawn) | 3.3 |
| NC(=O)N1c2ccccc2C=Cc2ccccc21 [Carbamazepine] | 108 |
| CCCN(CCC)S(=O)(=O)c1ccc(C(=O)O)cc1 | 187 |
| COc1ccc2[nH]c([S+]([O-])Cc3ncc(C)c(OC)c3C)nc2c1 (stereo not drawn) | 13 |
| O=C1NC(=O)C(c2ccccc2)(c2ccccc2)N1 | 15 |

----------
- Test system: CYP3A4 mRNA
- assayText: Concentration-dependent CYP3A4 mRNA induction in HepatoCells
- conditionDescription: mean of lots 2B, 3A, 3B

| molecule | studySystem | RIS Based on mRNA, Mean |
| --- | --- | --- |
| COc1ccc2[nH]c([S+]([O-])Cc3ncc(C)c(OC)c3C)nc2c1 (stereo not drawn) | CYP3A4 mRNA | 0.074 |
| CCc1ccc(CCOc2ccc(CC3SC(=O)NC3=O)cc2)nc1 (stereo not drawn) | CYP3A4 mRNA | 0.29 |
| CCCN(CCC)S(=O)(=O)c1ccc(C(=O)O)cc1 | CYP3A4 mRNA | 2.8 |
| O=C1C(CC[S+]([O-])c2ccccc2)C(=O)N(c2ccccc2)N1c1ccccc1 (stereo not drawn) | CYP3A4 mRNA | 1.4 |
| O=C1NC(=O)C(c2ccccc2)(c2ccccc2)N1 | CYP3A4 mRNA | 9.4 |
| NC(=O)N1c2ccccc2C=Cc2ccccc21 [Carbamazepine] | CYP3A4 mRNA | 0.9 |

----------
- Tested on: CYP3A4 mRNA
- assayText: in vitro
- conditionDescription: human
experimentalReadout: EC50

| compound | assayResult |
| --- | --- |
| CCC1(c2ccccc2)C(=O)NC(=O)NC1=O [Phenobarbital] | 775 µM |

----------
- System: CYP3A4 mRNA
- assayText: Concentration-dependent CYP3A4 mRNA induction in HepatoCells
- conditionDescription: Lot 2B; RIS = (Emax × Cmax,ub)/(EC50 + Cmax,ub)

| molecule | RIS Based on mRNA |
| --- | --- |
| COc1ccc2[nH]c([S+]([O-])Cc3ncc(C)c(OC)c3C)nc2c1 (stereo not drawn) [Omeprazole] | 0.069 |
| CCc1ccc(CCOc2ccc(CC3SC(=O)NC3=O)cc2)nc1 (stereo not drawn) [Pioglitazone] | 0.28 |
| NC(=O)N1c2ccccc2C=Cc2ccccc21 [Carbamazepine] | 0.76 |

----------
Quick list: Predicted % AUC Change Based on mRNA per entry.
- System: CYP3A4
- conditionDescription: Lot 3B HepatoCells; RIS calibration curve

| compound | unitOfMeasure | Predicted % AUC Change Based on mRNA |
| --- | --- | --- |
| O=C1NC(=O)C(c2ccccc2)(c2ccccc2)N1 | % | 95 |
| COc1ccc2[nH]c([S+]([O-])Cc3ncc(C)c(OC)c3C)nc2c1 (stereo not drawn) | % | 0.35 |
| CCc1ccc(CCOc2ccc(CC3SC(=O)NC3=O)cc2)nc1 (stereo not drawn) | % | 29 |
